# Target under test: Cytochrome P450 3A4 (Homo sapiens)
# Protocol text: qHTS Assay for Inhibitors and Substrates of Cytochrome P450 3A4 (AID 884); also: potency is read from the fitted curve at half-maximal effect; nearly all actives have a fitted effect of over 50% in size
# Condition summary: recombinant CYP3A4, Luciferin-PPXE luminescence; series mostly up to 57.1 µM
Results filed as inconclusive are left out. Calls of active or inactive are those of the source. Calls follow the shape of the dose curve; as a rule, active = well fitted inhibition curve with a large enough effect; inconclusive = small, poorly fitted or top-dose-only effect; inactive = no such curve, though single readings can be large or run the other way.
For each record, write down the corresponding Potency.

Lookup: Potency / Cytochrome P450 3A4 (Homo sapiens) / CCC/C=C(\CCC)C(NC(=O)c1cccs1)c1ccc(C(=O)OC)cc1 (stereo not given)
1.26 µM (active)

Lookup: Potency / Cytochrome P450 3A4 (Homo sapiens) / "COc1cc2nc3c(c([Si](C)(C)C(C)(C)C)c2cc1OC)Cn1c-3cccc1=O"
3.98 µM (active)

Lookup: Potency / Cytochrome P450 3A4 (Homo sapiens) / CCC/C=C(\CCC)C(NS(=O)(=O)c1cccs1)c1ccc(C(=O)OC)cc1 (stereo not given)
3.16 µM (active)

Lookup: Potency / Cytochrome P450 3A4 (Homo sapiens) / "COc1ccc2c(=O)cc(-c3ccc(O)cc3)oc2c1"
3.16 µM (active)

Lookup: Potency / Cytochrome P450 3A4 (Homo sapiens) / "COC(=O)[C@H](C)[C@H]1C[C@]1(C)[C@H](NC(=O)OCc1ccccc1)c1ccccc1"
7.94 µM (active)

Lookup: Potency / Cytochrome P450 3A4 (Homo sapiens) / "COC(=O)[C@@]1(Cc2ccccc2)[C@H]2c3cc(C(=O)N4CCCC4)n(Cc4c(CO)[nH]cc(C)c4=O)c3C[C@H]2CN1C(=O)c1ccccc1"
2.51 µM (active)

Lookup: Potency / Cytochrome P450 3A4 (Homo sapiens) / "COC(=O)N[C@H](c1ccccc1)[C@@]1(C)C[C@@H]1[C@@H](C)C(=O)Nc1ccc2ccccc2c1"
0.199 µM (active)

Lookup: Potency / Cytochrome P450 3A4 (Homo sapiens) / CCC/C=C(\CCC)C(NS(=O)(=O)c1ccc(Cl)cc1)c1ccccc1 (stereo not given)
7.94 µM (active)

Lookup: Potency / Cytochrome P450 3A4 (Homo sapiens) / CCCC[C@@H]1C[C@H]1C(NC(=O)Cc1ccccc1)c1ccc(Cl)cc1 (stereo not given in full)
2.51 µM (active)

Lookup: Potency / Cytochrome P450 3A4 (Homo sapiens) / "COC(=O)[C@@]1(Cc2ccc(OC)cc2)[C@H]2c3cc(C(=O)N4CCCC4)n(Cc4ccc(C(F)(F)F)nc4)c3C[C@H]2CN1C(=O)c1ccccc1"
3.16 µM (active)

====

# Tested on: TAB165
# Protocol text: qHTS profiling for inhibitors of Plasmodium falciparum proliferation (AID 504749); also: nearly all actives have a fitted effect of over 60% in size
# Condition summary: P. falciparum in erythrocytes, SYBR Green DNA, 72 h; series mostly up to 28.7 µM
Results filed as inconclusive are left out. The source made the active and inactive calls. Calls come from the whole dose curve; as a rule, active = well fitted inhibition curve with a large enough effect; inconclusive = small, poorly fitted or top-dose-only effect; inactive = flat fitted curve, though single readings scatter.
Hi! Could you answer with just one of these? active, inactive

Returns: the outcome recorded for COC(=O)C1C2CC3c4[nH]c5cc(OC)ccc5c4CCN3CC2CC(OC)C1OC (configuration not stated) in this assay.
inactive

Returns: the outcome recorded for CC(=O)NC1[C@H]([C@H](O)[C@H](O)CO)OC(C(=O)O)=C[C@H]1N=C(N)N (some centres not stated) in this assay.
inactive

Returns: the outcome recorded for "CC[C@@H]1/C=C(\C)C[C@H](C)C[C@H](OC)[C@H]2O[C@@](O)(C(=O)C(=O)N3CCCC[C@H]3C(=O)O[C@H](/C(C)=C/[C@@H]3CC[C@H](Cl)[C@H](OC)C3)[C@H](C)[C@@H](O)CC1=O)[C@H](C)C[C@@H]2OC" in this assay.
inactive

Returns: the outcome recorded for COC(=O)C1[C@@H](OC)C(OC(=O)COc2ccc(OC)cc2)C[C@@H]2CN3CCc4c([nH]c5cc(OC)ccc45)[C@H]3C[C@H]12 (some centres not stated) in this assay.
active

Returns: the outcome recorded for O=C1Oc2ccccc2C(=O)C1C(CC(O)c1ccc(-c2ccc(Br)cc2)cc1)c1ccccc1 (configuration not stated) in this assay.
inactive

Returns: the outcome recorded for "OC[C@@H]1O[C@](CO)(O[C@H]2O[C@H](CO)[C@@H](O)[C@H](O)[C@H]2O)[C@H](O)[C@H]1O" in this assay.
inactive

Returns: the outcome recorded for Nc1ncn(C2C[C@H](O)[C@@H](CO)O2)c(=O)n1 (some centres not stated) in this assay.
inactive
